# STUDY_SYSTEM: UniProt:Q63380
# Sequence (Q63380 whole entry): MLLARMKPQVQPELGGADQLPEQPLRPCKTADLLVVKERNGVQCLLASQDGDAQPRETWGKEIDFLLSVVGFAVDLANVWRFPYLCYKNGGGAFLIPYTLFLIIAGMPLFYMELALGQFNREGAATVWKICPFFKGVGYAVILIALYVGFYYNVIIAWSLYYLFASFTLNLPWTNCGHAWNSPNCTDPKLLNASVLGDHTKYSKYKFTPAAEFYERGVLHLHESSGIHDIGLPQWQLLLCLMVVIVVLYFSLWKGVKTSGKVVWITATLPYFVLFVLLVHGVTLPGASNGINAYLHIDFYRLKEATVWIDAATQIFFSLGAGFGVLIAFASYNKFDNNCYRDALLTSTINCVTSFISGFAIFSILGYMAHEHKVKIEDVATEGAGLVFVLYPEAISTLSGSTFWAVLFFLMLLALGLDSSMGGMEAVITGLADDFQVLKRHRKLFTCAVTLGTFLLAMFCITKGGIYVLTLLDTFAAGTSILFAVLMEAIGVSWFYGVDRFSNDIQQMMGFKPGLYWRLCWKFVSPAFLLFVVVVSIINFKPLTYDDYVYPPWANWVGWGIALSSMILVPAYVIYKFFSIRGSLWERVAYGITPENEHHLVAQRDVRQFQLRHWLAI
# MEASUREMENT_NOTES: Inhibition of norepinephrine uptake at NET in rat brain synaptosome
Assignment: determine reported pIC50 for the given molecules.
Expect pIC50 as a plain number equal to -log10 of the molar concentration.

Ask: Returns the measured pIC50 for the input molecule. Input: c1cnc2ccc(C34CNCC3C4)cc2c1 (stereo not drawn)
Result: 5.85

Ask: Next: Clc1cc(Cl)c(C23CNCC2C3)s1 (stereo not drawn)
Result: 5.28

Ask: What about this molecule? Fc1ccc2sc([C@]34CNC[C@H]3C4)cc2c1
Result: 7.17
